TESTED_SYSTEM: a4b7 integrin interaction with MadCAM-1 (Homo sapiens, UniProt P13612+P26010)
Construct: capture of a4b7 integrin expressing cells, RPMI8866; endogenous in cells
Sequence (P13612 34-1032): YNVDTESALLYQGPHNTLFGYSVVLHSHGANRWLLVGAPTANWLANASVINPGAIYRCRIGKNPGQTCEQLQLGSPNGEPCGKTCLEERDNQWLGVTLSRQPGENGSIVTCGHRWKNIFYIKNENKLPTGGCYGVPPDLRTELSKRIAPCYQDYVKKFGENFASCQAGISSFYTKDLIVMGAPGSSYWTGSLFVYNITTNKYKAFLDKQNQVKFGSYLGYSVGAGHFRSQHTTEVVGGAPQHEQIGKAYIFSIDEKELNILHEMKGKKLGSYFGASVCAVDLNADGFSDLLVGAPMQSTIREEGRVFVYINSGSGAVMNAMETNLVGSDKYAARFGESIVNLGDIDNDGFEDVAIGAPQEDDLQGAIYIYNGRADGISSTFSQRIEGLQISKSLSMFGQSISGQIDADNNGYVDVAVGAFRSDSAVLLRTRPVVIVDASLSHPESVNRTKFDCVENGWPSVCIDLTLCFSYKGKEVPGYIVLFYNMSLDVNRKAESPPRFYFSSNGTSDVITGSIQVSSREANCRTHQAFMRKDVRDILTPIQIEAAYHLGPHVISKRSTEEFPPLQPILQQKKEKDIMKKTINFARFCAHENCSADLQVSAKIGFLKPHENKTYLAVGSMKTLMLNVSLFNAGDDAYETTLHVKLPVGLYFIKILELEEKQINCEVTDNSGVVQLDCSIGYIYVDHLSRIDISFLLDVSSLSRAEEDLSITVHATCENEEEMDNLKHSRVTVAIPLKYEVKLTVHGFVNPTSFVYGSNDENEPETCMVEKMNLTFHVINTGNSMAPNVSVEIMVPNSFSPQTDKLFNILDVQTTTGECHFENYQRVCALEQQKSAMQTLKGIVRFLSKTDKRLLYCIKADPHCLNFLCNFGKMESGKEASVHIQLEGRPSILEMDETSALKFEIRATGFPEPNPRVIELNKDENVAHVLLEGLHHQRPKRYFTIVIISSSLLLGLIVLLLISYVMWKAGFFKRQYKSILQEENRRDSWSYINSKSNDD
Sequence (P26010 20-798): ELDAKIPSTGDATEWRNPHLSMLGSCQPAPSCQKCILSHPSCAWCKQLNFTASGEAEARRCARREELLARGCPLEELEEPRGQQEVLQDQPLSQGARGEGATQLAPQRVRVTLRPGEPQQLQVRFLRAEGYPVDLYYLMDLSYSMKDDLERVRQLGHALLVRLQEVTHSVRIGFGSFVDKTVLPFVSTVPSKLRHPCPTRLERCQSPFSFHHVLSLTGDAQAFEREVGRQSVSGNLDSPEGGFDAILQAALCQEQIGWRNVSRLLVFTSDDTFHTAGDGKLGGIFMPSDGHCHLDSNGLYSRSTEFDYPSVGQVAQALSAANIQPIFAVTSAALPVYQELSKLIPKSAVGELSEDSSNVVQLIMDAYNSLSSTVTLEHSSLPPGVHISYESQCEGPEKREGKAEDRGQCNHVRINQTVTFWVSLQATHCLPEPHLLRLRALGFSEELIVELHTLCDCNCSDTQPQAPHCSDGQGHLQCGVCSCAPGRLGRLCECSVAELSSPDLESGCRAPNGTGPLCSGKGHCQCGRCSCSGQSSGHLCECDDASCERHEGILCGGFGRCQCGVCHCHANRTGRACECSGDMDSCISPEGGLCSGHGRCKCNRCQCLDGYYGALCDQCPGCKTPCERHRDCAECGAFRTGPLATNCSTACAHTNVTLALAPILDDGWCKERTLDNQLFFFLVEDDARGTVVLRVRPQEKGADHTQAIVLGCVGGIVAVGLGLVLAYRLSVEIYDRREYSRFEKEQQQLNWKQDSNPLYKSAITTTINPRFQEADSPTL
ASSAY_OVERVIEW: a4b7 Cell Capture Assay (RPMI8866 cells on MAdCAM-1 Fc coated plates)
TEST_PARAMETERS: 50% human serum, 1 mM MgCl2, 1 hour incubation, CellTiter-Glo luminescence, read-out: a4B7 cell capture assay RMPI8866-MadCAM EC50
READOUT_TYPE: EC50 (µM)

COMPOUND	READOUT_TYPE	UNIT_DESCRIPTOR	RESULT
Cc1cc2cc(c1F)[C@H](CC(=O)O)NC(=O)[C@@H](n1cc(CCN3CC(F)C3)c(C(F)(F)F)cc1=O)c1cc(cc(C(F)(F)F)c1)Oc1cccc(C)c1-2 (relative stereo) [Example 22]	EC50	µM	0.0099

I: Cc1cc2cc(c1F)[C@H](CC(=O)O)NC(=O)[C@@H](n1cc(CCN3CC(F)C3)c(C(F)(F)F)cc1=O)c1cc(ccc1F)Oc1nn(C)cc1-2 (single isomer, unassigned) [Example 43]
II: Cc1cc2cc(c1F)[C@H](CC(=O)O)NC(=O)[C@@H](n1cc(CCN3CC(F)C3)c(C(F)(F)F)cc1=O)c1cc(Cl)cc(c1)Oc1cccc(C)c1-2 (single isomer, unassigned) [Example 3]
*Q* Lab note: check whether I or II has the lower measured EC50. // return label of chosen record
*A* II
